Give apparent KD of K4 kissing-loop reporter for every item shown.
System: K4 kissing-loop RNA reporter;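 further: bound reporter read as fluorescence of individual clusters on recovered sequencing chips by microscopy, with normalized cluster intensities fitted with a binding model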
assay_remarks: apparent KD of K4 kissing-loop reporter; higher = weaker reporter binding
assay_conditions: Eterna round: R107; input ligand: none
Report the figure in nM without appending any unit label.

Item under review: UGAUUGGCAAAAGUAGUGAUGUUACGAAUAUAGGAUAUUAGAGGAAUAAGAAGGAUAAGGGAGAAAUAGGUAAAUUGUUGGUUGG [whbob_SS_FMNA__2th171] . Reported apparent KD of K4 kissing-loop reporter?
285

Item under review: UGACUGGACUGAAGGAGCGUGGAAGGAGCGUAAGUAGUGAUGUUGCUUACAGGUAGGUCGCCGCAGGUAGGUCGCAGUCUAGUCU . Reported apparent KD of K4 kissing-loop reporter?
56.5

Item under review: AGAUUCGACACGGCCGCCACUCGUGGUGGAUUAUCCUAUGUAAGACAUGAGUGAUGUUCAUGUACGAGGACCGGGUGUUGAGUCU [KL-XTryp-B5 #analogue] . Reported apparent KD of K4 kissing-loop reporter?
488

Item under review: AUAUAUAACUGAAGGAGCGAGGCCAAAUAUAUAUAGUGAUGUUAUAUAAAGGCACAUAGGCCUCAGGUAGGUCGCAGAAUAAUAU [AstrosExyArGB#1] . Reported apparent KD of K4 kissing-loop reporter?
277

Item under review: GAUUGAGUGAUGUUCAAUUAGUAUCUAGAUACCAGAAUGUCUACCUUCCCUUGGCAGCUACUGACGGUGAUCAUUUCGCGCGCAG [theeternabot_sameState_KL_Theo_A_19] . Reported apparent KD of K4 kissing-loop reporter?
244

Item under review: CAAGUCGAAAAGUGAUGUUUUUCAUACGAUACCAGCAACCAGACAUGCCCUUGGCAGCGUCCAUUACGUUUCUGAGCCCGUACAG [theeternabot_exclusion_KL_Theo_A_40] . Reported apparent KD of K4 kissing-loop reporter?
389

Item under review: UGACUGGAUGGAAGGAGCGCUAAACUCCUAGUGAUGUUAGGGACACGAGACAAAGUCUCGAAGCAGGUAGGUCGCCAUCUAGUCU [FiskerMod 13 - Jieux - Same State - Arginine B] . Reported apparent KD of K4 kissing-loop reporter?
160

Item under review: UCGGGCGGCUGAAGGAGCGGGCGGGCCCGAGUGAUGUUCGGGUGGGCUGUGAGGCCCGGAGCCCAGGUAGGUCGCGGUUCCGCCC [#2 Same State - Arginine B Attempt #28 (HarryS)] . Reported apparent KD of K4 kissing-loop reporter?
157

Item under review: GGAUGGUAGGCGGCCGCCACUAAAACUGAACACAUACAAGCCAGUGAUGUUGGUAUGAUGAAGUAUAGGACCGGGCCUAGAUAGA [Exclusion - Tryptophan B (Freestyle 3)] . Reported apparent KD of K4 kissing-loop reporter?
422

Item under review: AGACUACUGAUAGGAUAUAACAUACUACCUCGUAUACCAAAGGUAUACGAGGCCCUUCUAGUGAUGUUAGAAGGGUCGGUAGUCA [Omei KL FMN B Exc B v5] . Reported apparent KD of K4 kissing-loop reporter?
79.5

Item under review: ACGUGCACCAGUGAUGUUGGAAAAUAUGAAGGAGCGGGAGAAAACCCAGGUAGGUCGCAUAAUUGCACGAGCCACGAAAGUGGCA [#15 K4 Arginine A Same State] . Reported apparent KD of K4 kissing-loop reporter?
88.3
